# Test system: Staphylococcus aureus subsp. aureus (ATCC29213)
# protocol-text: MIC, broth microdilution (CLSI), Staphylococcus aureus subsp. aureus ATCC29213
# Format: cell-based
# test-parameters: ATCC29213, Table 16, read-out: MIC S. aureus ATCC 29213
measured-parameter: MIC (µg/mL)
Reply numerically in µg/mL, unit not repeated.

Q: Look up MIC: Nc1cc(C(F)(F)F)cc2c1N(CCCn1ccnc1)c1ccccc1S2
Result: 4

Q: Look up MIC: NCCN1CCC(Nc2cc(C(F)(F)F)cc3c2Nc2ccccc2S3)CC1
Result: 4

Q: Look up MIC: NC1CCCC(CNc2cc(C(F)(F)F)cc3c2Nc2ccccc2S3)C1 (centres unmarked)
Result: 4

Q: Look up MIC: CNCCCN1c2ccccc2Sc2cc(-c3cc4ccccc4[nH]3)ccc21
Result: 4

Q: Look up MIC: O=C(/C=C/c1ccc(F)cc1)Nc1cc(C(F)(F)F)cc2c1Nc1ccccc1S2
Result: 0.5
